# reported Ratio EC50; entries follow
- Tested on: Human immunodeficiency virus 1
- test_method_notes: Selectivity index, ratio of EC50 for Human immunodeficiency virus 1 isolate M3 expressing protease L10I, K20R, M36I, G48V, I62V, A71V, V82A, I93L mutant to EC50 for Human immunodeficiency virus 1 3B expressing wild-type protease
- Assay type: functional

[
  {
    "input_smiles": "CNc1nc2ccc(S(=O)(=O)N(CC(C)C)C[C@@H](O)[C@H](Cc3ccccc3)NC(=O)O[C@H]3CO[C@H]4OC[C@H](OCc5ccccc5F)[C@H]43)cc2o1",
    "experimental_system": "Human immunodeficiency virus 1",
    "Ratio EC50": 1.3
  },
  {
    "input_smiles": "CNc1nc2ccc(S(=O)(=O)N(CC(C)C)C[C@@H](O)[C@H](Cc3ccccc3)NC(=O)O[C@H]3CO[C@H]4OC[C@H](OCc5cccc(F)c5)[C@H]43)cc2o1",
    "experimental_system": "Human immunodeficiency virus 1",
    "Ratio EC50": 1.3
  },
  {
    "input_smiles": "CNc1nc2ccc(S(=O)(=O)N(CC(C)C)C[C@@H](O)[C@H](Cc3ccccc3)NC(=O)O[C@H]3CO[C@H]4OC[C@H](OCCOC)[C@H]43)cc2o1",
    "experimental_system": "Human immunodeficiency virus 1",
    "Ratio EC50": 0.5
  },
  {
    "input_smiles": "CC(C)CN(C[C@@H](O)[C@H](Cc1ccccc1)NC(=O)O[C@H]1CO[C@H]2OC[C@H](OCc3ccccc3)[C@H]21)S(=O)(=O)c1ccc(N)cc1",
    "experimental_system": "Human immunodeficiency virus 1",
    "Ratio EC50": 1.1
  },
  {
    "input_smiles": "CNc1nc2ccc(S(=O)(=O)N(CC(C)C)C[C@@H](O)[C@H](Cc3ccccc3)NC(=O)O[C@H]3CO[C@H]4OC[C@H](OCc5ccc(F)cc5)[C@H]43)cc2o1",
    "experimental_system": "Human immunodeficiency virus 1",
    "Ratio EC50": 1.6
  },
  {
    "input_smiles": "COCCO[C@H]1CO[C@@H]2OC[C@H](OC(=O)N[C@@H](Cc3ccccc3)[C@H](O)CN(CC(C)C)S(=O)(=O)c3ccc(N)cc3)[C@@H]21",
    "experimental_system": "Human immunodeficiency virus 1",
    "Ratio EC50": 0.4
  }
]
